// data source = patent US20130108641A1

This listing pairs binders with measured Kd.
- TARGET_SYSTEM: T1, cynomolgus monkey GITR-Fc (cynomolgus monkey)
- T1 construct: extracellular domain; also called cGITR-FC; cGITR
- PROCEDURE_SUMMARY: SPR (BIAcore 2000), mAb captured on anti-mouse Fc, antigen injected
READOUT_NAME: Kd

>>> test_result("anti-GITR antibody clone 698 (antibody, V domains shown, Murine hybridoma antibody; also called 698-GITR2; 698 GITR-2) VH: EVQLQQSGTVLARPGASVKMSCEASGYSFTTYWMHWIKQRPGQGLEWIGAIYPGNSDTGYNQKFKGKAKLTAVTSATTAYMELSSLTDEDSAVYYCTRTSTYPHFDYWGQGTTLTVSS VL: DILLTQSPAILSVSPGERVSFSCRASQSIGTSIHWYQQRTNGSPRLLIKYASESISGIPSRFSGSGSGTDFTLNINSVESEDIADYYCQQSNNWPLTFGAGTKLELK")
"36.8 nM"
>>> test_result("anti-GITR antibody clone 706 (antibody, V domains shown, Murine hybridoma antibody; also called 706-GITR2; 706 GITR-2) VH: EVQLQQSGTVLARPGASVKMSCEASGYSFTTYWMHWIKQRPGQGLEWIGAIYPGNSDTGYNQKFKGKAKLTAVTSASTAYMELSSLTNEDSAVYYCTRTSTYPHFDYWGQGTTLTVSS VL: DILLTQSPAILSVSPGERVSFSCRASQSIGTSIHWYQQRTNGSPRLLIKYASESISGIPSRFSGSGSGTDFTLNINSVESEDIADYYCQQTNNWPLTFGAGTKLELK")
"31.8 nM"
